Catalogue of IC50 values
Tested on: NCI-H460
MEASUREMENT NOTES: Cytotoxicity against human H460 cells after 72 hrs
Assay type: functional, cell-based
CONDITIONS USED: NCI-H460, 72 h

# SMILES NOTATION, TARGET DESC, IC50 (nM)
measured = [
    ("COC(=O)O[C@H]1C(=O)[C@@]2(C)[C@H]([C@H](OC(=O)c3cccc(N=[N+]=[N-])c3)[C@]3(O)C[C@H](OC(=O)[C@H](O)[C@@H](NC(=O)OC(C)(C)C)C(F)(F)F)C(C)=C1C3(C)C)[C@]1(OC(C)=O)CO[C@@H]1C[C@@H]2O", "NCI-H460", 0.2),
    ("CCC(=O)O[C@H]1C(=O)[C@@]2(C)[C@H]([C@H](OC(=O)c3cccc(N=[N+]=[N-])c3)[C@]3(O)C[C@H](OC(=O)[C@H](O)[C@@H](NC(=O)OC(C)(C)C)C(F)F)C(C)=C1C3(C)C)[C@]1(OC(C)=O)CO[C@@H]1C[C@@H]2O", "NCI-H460", 0.27),
    ("CC(=O)O[C@@]12CO[C@@H]1C[C@H](O)[C@@]1(C)C(=O)[C@H](OC(=O)N(C)C)C3=C(C)[C@@H](OC(=O)[C@H](O)[C@@H](NC(=O)OC(C)(C)C)C(F)F)C[C@@](O)([C@@H](OC(=O)c4cccc(F)c4)[C@H]21)C3(C)C", "NCI-H460", 0.2),
    ("COC(=O)O[C@H]1C(=O)[C@@]2(C)[C@H]([C@H](OC(=O)c3cccc(F)c3)[C@]3(O)C[C@H](OC(=O)[C@H](O)[C@@H](NC(=O)OC(C)(C)C)C(F)(F)F)C(C)=C1C3(C)C)[C@]1(OC(C)=O)CO[C@@H]1C[C@@H]2O", "NCI-H460", 0.61),
    ("CCC(=O)O[C@H]1C(=O)[C@@]2(C)[C@H]([C@H](OC(=O)c3cccc(Cl)c3)[C@]3(O)C[C@H](OC(=O)[C@H](O)[C@@H](NC(=O)OC(C)(C)C)C(F)F)C(C)=C1C3(C)C)[C@]1(OC(C)=O)CO[C@@H]1C[C@@H]2O", "NCI-H460", 0.3),
    ("CC(=O)O[C@H]1C(=O)[C@@]2(C)[C@H]([C@H](OC(=O)c3cccc(F)c3)[C@]3(O)C[C@H](OC(=O)[C@H](O)[C@@H](NC(=O)OC(C)(C)C)C(F)(F)F)C(C)=C1C3(C)C)[C@]1(OC(C)=O)CO[C@@H]1C[C@@H]2O", "NCI-H460", 0.49),
    ("CCC(=O)O[C@H]1C(=O)[C@@]2(C)[C@H]([C@H](OC(=O)c3cccc(N=[N+]=[N-])c3)[C@]3(O)C[C@H](OC(=O)[C@H](O)[C@@H](NC(=O)OC(C)(C)C)C(F)(F)F)C(C)=C1C3(C)C)[C@]1(OC(C)=O)CO[C@@H]1C[C@@H]2O", "NCI-H460", 0.2),
    ("CC(=O)O[C@H]1C(=O)[C@@]2(C)[C@H]([C@H](OC(=O)c3ccccc3)[C@]3(O)C[C@H](OC(=O)[C@H](O)[C@@H](NC(=O)c4ccccc4)c4ccccc4)C(C)=C1C3(C)C)[C@]1(OC(C)=O)CO[C@@H]1C[C@@H]2O", "NCI-H460", 4.9),
]
